experimental_target: peroxidase-anti-peroxidase (PAP) immune complexes (UniProt P00433)
Sequence (P00433 31-338, one chain of several): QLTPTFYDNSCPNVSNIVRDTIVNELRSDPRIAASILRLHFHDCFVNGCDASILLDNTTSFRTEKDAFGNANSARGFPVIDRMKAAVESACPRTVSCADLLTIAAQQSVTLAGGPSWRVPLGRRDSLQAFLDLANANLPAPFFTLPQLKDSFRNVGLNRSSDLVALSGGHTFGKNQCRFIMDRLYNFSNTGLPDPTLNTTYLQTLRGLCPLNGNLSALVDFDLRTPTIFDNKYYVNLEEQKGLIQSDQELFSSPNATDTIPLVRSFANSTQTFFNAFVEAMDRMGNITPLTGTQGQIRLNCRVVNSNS
measurement_protocol: reverse ELISA: rabbit PAP pre-incubated with peptide; competitor: immobilised histone
Positions of bridges follow the written chain, without caps; N, C: chain ends. No end group written: not given here.
Can you tell me OD 405 nm for the items I'm about to list?
Value and unit, in that order.

Example entries and their recorded answers appear below.
Prompt: Note down OD 405 nm recorded for DCAWHLGELAACT (cyclized by a disulfide bond between the two cysteine residues) [… (SEQ ID NO:42)]
Completion: 0.729 OD

Prompt: Note down OD 405 nm recorded for DCARHLGELVWCT (disulfide 2-12 (inferred)) [… (SEQ ID NO:4)]
Completion: 0.363 OD

Field: OD 405 nm. Fill in for each record below.
1. RCARHLGELVWCT (disulfide 2-12 (inferred)) [… (SEQ ID NO:5)]
2. PCARHLGELVWCT (disulfide 2-12 (inferred)) [… (SEQ ID NO:41)]

Completion:
1: 0.359 OD; 2: 0.444 OD
